# Experimental details: In vitro stability in rat plasma
# Format: in vitro ADME
# Procedure: Apelin peptides were spiked into rat plasma, liver homogenate, and kidney homogenate, which were obtained from commercial sources, to a final concentration of 5 μM. The samples were then incubated at 37° C. over a period of 4 hr. […] In a typical experiment, an aliquot of 100 μL of sample was taken from the incubation vial, followed by addition of 300 μL of MeOH containing internal standard. […] The supernatant was then analyzed by high resolution LC-MS. […]
Observed property: remaining at 4 h, 5 μM (%)
Number only, in %; omit the unit.

// remaining at 4 h, 5 μM lookup, key: `CCCCCCCCCCCCC(=O)N[C@@H](CCC(=O)NCCOCCOCC(=O)NCCOCCOCC(=O)N[C@@H](CCC(N)=O)C(=O)N[C@@H](CCCNC(=N)N)C(=O)N1CCC[C@H]1C(=O)N(C)[C@@H](CCCNC(=N)N)C(=O)N[C@@H](CC(C)C)C(=O)N[C@@H](CO)C(=O)N[C@@H](Cc1c[nH]cn1)C(=O)N[C@@H](CCCCN)C(=O)NCC(=O)N1CCC[C@H]1C(=O)N[C@@H](CCCC)C(=O)N1CCC[C@H]1CC(=O)N[C@@H](Cc1ccc(Cl)cc1)C(=O)O)C(=O)O` 33

// remaining at 4 h, 5 μM lookup, key: `CCCCCCCCCCCCC(=O)N[C@@H](CCC(=O)NCCOCCOCC(=O)NCCOCCOCC(=O)N[C@@H](CCC(N)=O)C(=O)N[C@@H](CCCCNC(=N)N)C(=O)N1CCC[C@H]1C(=O)N[C@@H](CCCCNC(=N)N)C(=O)N[C@@H](CC(C)C)C(=O)N[C@@H](CO)C(=O)N[C@@H](Cc1c[nH]cn1)C(=O)N[C@@H](CCCCN)C(=O)NCC(=O)N1CCC[C@H]1C(=O)N[C@@H](CCCC)C(=O)N1CCC[C@H]1C(=O)N[C@@H](Cc1ccc(Cl)cc1)C(=O)O)C(=O)O` 56

###

Assign remaining at 4 h, 5 μM to each entry below.
# Experimental details: In vitro stability in rat plasma
# Format: in vitro ADME
Starred links: 1 amine or outer side, 2 acyl side, 3 side chain; linkers in the order of their positions; H or OH if unused. Non-standard residues stand in square brackets, D forms with d. Residues, ends and D or L forms follow the SMILES beside them. *: point of attachment. Phe(4-Cl) = N[C@@H](Cc1ccc(Cl)cc1)C(=O)O; γGlu = O=C(O)[C@H](CCC(=O)[*:2])N[*:1]; NMeR = CN[C@@H](CCCNC(=N)N)C(=O)O; Tridecanoyl = CCCCCCCCCCCCC(=O)*; Nle = CCCC[C@H](N)C(=O)O; AEEA = NCCOCCOCC(=O)O; βAla = NCCC(=O)O
Number only, in %; omit the unit.

// remaining at 4 h, 5 μM lookup, key: CCCCCCCCCCCCC(=O)N[C@@H](CCC(=O)NCCOCCOCC(=O)NCCOCCOCC(=O)N[C@@H](CCC(N)=O)C(=O)N[C@@H](CCCCNC(=N)N)C(=O)N1CCC[C@H]1C(=O)N(C)[C@@H](CCCCNC(=N)N)C(=O)N[C@@H](CC(C)C)C(=O)N[C@@H](CO)C(=O)N[C@@H](Cc1c[nH]cn1)C(=O)N[C@@H](CCCCN)C(=O)NCC(=O)N1CCC[C@H]1C(=O)N[C@@H](CCCC)C(=O)N1CCC[C@H]1C(=O)N[C@@H](Cc1ccc(Cl)cc1)C(=O)O)C(=O)O [compound 483] 37

// remaining at 4 h, 5 μM lookup, key: CCCCCCCCCCCCC(=O)N[C@@H](CCC(=O)NCCOCCOCC(=O)NCCOCCOCC(=O)N[C@@H](CCC(N)=O)C(=O)N[C@@H](CCCNC(=N)N)C(=O)N1CCC[C@H]1C(=O)N(C)[C@@H](CCCNC(=N)N)C(=O)N[C@@H](CC(C)C)C(=O)NCCC(=O)N[C@@H](Cc1c[nH]cn1)C(=O)N[C@@H](CCCCN)C(=O)NCC(=O)N1CCC[C@H]1C(=O)N[C@@H](CCCC)C(=O)N1CCC[C@H]1C(=O)N[C@@H](Cc1ccc(Cl)cc1)C(=O)O)C(=O)O [compound 464] ({Tridecanoyl-γGlu-AEEA-AEEA}-QRP[NMeR]L[βAla]HKGP[Nle]P[Phe(4-Cl)]-OH) 21

// remaining at 4 h, 5 μM lookup, key: CCCCCCCCCCCCC(=O)N[C@@H](CCC(=O)NCCOCCOCC(=O)NCCOCCOCC(=O)N[C@@H](CCC(N)=O)C(=O)N[C@@H](CCCNC(=N)N)C(=O)N[C@@H](CCC(=O)O)C(=O)N(C)[C@@H](CCCNC(=N)N)C(=O)N[C@@H](CC(C)C)C(=O)N[C@@H](CO)C(=O)N[C@@H](Cc1c[nH]cn1)C(=O)N[C@@H](CCCCN)C(=O)NCC(=O)N1CCC[C@H]1C(=O)N[C@@H](CCCC)C(=O)N1CCC[C@H]1C(=O)N[C@@H](Cc1ccc(Cl)cc1)C(=O)O)C(=O)O [compound 476] 40

// remaining at 4 h, 5 μM lookup, key: CCCCCCCCCCCCC(=O)N[C@@H](CCC(=O)NCCOCCOCC(=O)NCCOCCOCC(=O)N[C@@H](CCC(N)=O)C(=O)N[C@H](CCCNC(=N)N)C(=O)N1CCC[C@H]1C(=O)N[C@@H](CCCCNC(=N)N)C(=O)N[C@@](C)(CC(C)C)C(=O)N[C@@H](CO)C(=O)N[C@@H](Cc1c[nH]cn1)C(=O)N[C@@H](CCCCN)C(=O)NCC(=O)N1CCC[C@H]1C(=O)N[C@@H](CCCC)C(=O)N1CCC[C@H]1C(=O)N[C@@H](Cc1ccc(Cl)cc1)C(=O)O)C(=O)O [compound 485] 74

// remaining at 4 h, 5 μM lookup, key: CCCC[C@H](NC(=O)[C@@H]1CCCN1C(=O)CNC(=O)[C@H](CCCCN)NC(=O)[C@H](Cc1c[nH]cn1)NC(=O)[C@H](CO)NC(=O)[C@](C)(CC(C)C)NC(=O)[C@H](CCCCNC(=N)N)NC(=O)[C@@H]1CCCN1C(=O)[C@@H](CCCNC(=N)N)NC(=O)[C@H](CCC(N)=O)NC(=O)COCCOCCNC(=O)COCCOCCNC(=O)CC[C@H](NC(=O)CCCCC(=O)O)C(=O)O)C(=O)N1CCC[C@H]1C(=O)N[C@@H](Cc1ccc(Cl)cc1)C(=O)O [compound 515] 2
